Tested on: MDA-MB-435
In this section we review reported GI50 values for a set of compounds.

Worked cases, answers included:
1. COc1ccc(C(=O)/C=C/c2cc(-c3cc(OC)c(OC)c(OC)c3)n[nH]2)cc1OC; 1340 nM
2. COc1cc(Cn2c(-c3ccccc3)c(Cl)c3c2-c2oncc2CC3)cc(OC)c1; 2260 nM
3. O=C(CC1(O)C(=O)N(Cc2ccccc2)c2ccc(F)cc21)c1ccc(C(=O)NCC2CCC3(CC2)OOC2(CCCCC2)OO3)cc1 (centres undefined); 468 nM

Here is another compound to look at.
Measured GI50 (MDA-MB-435), entry COc1c(OC[C@H](O)CN2CCOCC2)ccc2c3n(c(=NC(=O)c4cccnc4C)nc12)CCN3 : 14100 nM
